// data source = patent US20040254162A1

Test system: P. acnes
Assay: Agar dilution MIC, anaerobes
Assay type: cell-based
Settings: Cutibacterium acnes, single isolates, anaerobic agar dilution; read-out: MIC P. acnes
Readings of MIC for the listed compounds
Express it in µg/mL; write the number only.

[[record]]
compound = "COc1c(N2C[C@@H]3CCCN[C@@H]3C2)c(F)cc2c(=O)c(C(=O)O)cn(C3CC3)c12"
recorded_metric = "MIC"
reported = 0.25

[[record]]
compound = "CCC[C@@H]1C[C@@H](C(=O)N[C@@H]([C@H]2O[C@H](SC)[C@H](O)[C@@H](O)[C@H]2O)[C@H](C)Cl)N(C)C1"
recorded_metric = "MIC"
reported = 0.06

[[record]]
compound = "CC(=O)NC[C@H]1CN(c2ccc(N3CCOCC3)c(F)c2)C(=O)O1"
recorded_metric = "MIC"
reported = 0.5


Now take the following compound into account.
Lab book: MIC of COc1c(N2CCNC(C)C2)c(F)cc2c(=O)c(C(=O)O)cn(C3CC3)c12 (stereo not drawn) noted as 0.25
